# PROTOCOL_DESCRIPTION: qHTS for Inhibitors of human tyrosyl-DNA phosphodiesterase 1 (TDP1): qHTS in cells in presence of CPT; also: nearly all actives have a fitted effect of over 55% in size
# TEST_PARAMETERS: chicken DT40 Tdp1-/-;hTDP1 cells + 20 nM CPT, ATP luminescence, 48 h; series mostly up to 46.2 µM
# Experimental: Human tyrosyl-DNA phosphodiesterase 1 (TDP1) is a novel repair gene, and we propose to use it as a new target for anticancer drug development. […] For the primary screen, Tdp1-/-;hTDP1 cells will be exposed to small molecules in the presence or absence of CPT, and their growth kinetics will be evaluated after 48 hours by measuring ATP activity. […] The hit compounds will then be evaluated in the presence or absence of CPT using Tdp1-/- cells. […]
Hit rate of the full screen: of about 420,000 compounds, about 50,000 (12%) were called active. Not shown: some 26% with an inconclusive outcome. Calls follow the shape of the dose curve; as a rule, active = well fitted inhibition curve with a large enough effect; inconclusive = small, poorly fitted or top-dose-only effect; inactive = flat fitted curve, though single readings scatter. What follows is part of a selection rich in actives, with near analogues and random picks from the rest.
Permitted responses: class 1 (active), class 0 (inactive)

## Task How did this test come out for CC(=O)NC(CC(=O)Nc1nc(-c2ccccc2)c(C(C)=O)s1)c1ccccc1 (stereo unspecified) ?
## Result class 0

## Task For CCOc1ccc(NC(=O)c2cccc3c2C(=O)N(CC2CCCO2)C3)cc1 (stereo unspecified) , which call appears in the assay record?
## Result class 0

## Task Check the results log: what was the call for CCOc1ccc(C(=O)Nc2c3c(nn2-c2ccccc2)CS(=O)(=O)C3)cc1 ?
## Result class 0

* * *

# PROTOCOL_DESCRIPTION: qHTS for Inhibitors of human tyrosyl-DNA phosphodiesterase 1 (TDP1): qHTS in cells in presence of CPT; also: nearly all actives have a fitted effect of over 55% in size
# TEST_PARAMETERS: chicken DT40 Tdp1-/-;hTDP1 cells + 20 nM CPT, ATP luminescence, 48 h; series mostly up to 46.2 µM
Hit rate of the full screen: of about 420,000 compounds, about 50,000 (12%) were called active. About 26% were inconclusive and are not listed. Calls follow the shape of the dose curve; as a rule, active = well fitted inhibition curve with a large enough effect; inconclusive = small, poorly fitted or top-dose-only effect; inactive = flat fitted curve, though single readings scatter. Only a selection was taken, and actives are over-represented in it overall.
Your reply should match one of these outcome classes. 1 = active, -1 = inactive

Reference set (6 entries):
COc1ccc(CNC(=O)C(=O)N2CCC3(CC2)OCCN3S(=O)(=O)c2ccc(C)cc2)cc1; -1
COc1cccc(CNn2cn[nH]c2=S)c1OCc1ccccc1; -1
COc1ccc(S(=O)(=O)N2CCOC23CCN(S(=O)(=O)c2ccc([N+](=O)[O-])cc2)CC3)cc1; 1
CC(=O)NC(CC(=O)Nc1ccc(S(=O)(=O)N2CCOCC2)cc1)c1ccccc1 (stereo not given); -1
C/C(=N/OC(=O)c1cccc(C(F)(F)F)c1)c1cnccn1; -1
COc1ccccc1-n1c(-c2cc(-c3ccco3)[nH]n2)n[nH]c1=S; -1

## Task Tell me the recorded outcome of this test for CC1CCCCC1NC(=O)c1cn(C)c2ccc(S(=O)(=O)N3CCOCC3)cc2c1=O (stereo not given) .
## Result -1

## Task Hi team, can someone confirm the assay call for O=C(NCCOc1ccccc1)c1ccccc1F ?
## Result -1

## Task How was CCOC(=O)C1C(c2ccc(O)cc2)NC(=O)NC1(O)C(F)(F)F (stereo not given) classified in this test?
## Result -1

## Task How was Cc1cccc(NS(=O)(=O)c2cc(Cl)ccc2Cl)n1 classified in this test?
## Result -1

* * *

# PROTOCOL_DESCRIPTION: qHTS for Inhibitors of human tyrosyl-DNA phosphodiesterase 1 (TDP1): qHTS in cells in presence of CPT; also: nearly all actives have a fitted effect of over 55% in size; also: potency is read from the fitted curve at half-maximal effect
# TEST_PARAMETERS: chicken DT40 Tdp1-/-;hTDP1 cells + 20 nM CPT, ATP luminescence, 48 h; series mostly up to 46.2 µM
Screen size: about 420,000 compounds; about 50,000 (12%) were called active. Inconclusive results (about 26%) are left out. The full list was thinned out, with actives kept by preference.
MEASUREMENT_KIND: Potency

Look over these answered cases.
Cc1ncoc1C(=O)N1CCCC(C(=O)c2ccc3c4c(cccc24)CC3)C1 (stereo not given); 18.4 µM (active)
O=C(Nc1ccccn1)C1CCN(S(=O)(=O)c2ccccc2)CC1; inactive
C=CCSc1nnc(NC(=O)c2ccc(NC(C)=O)cc2)s1; inactive
Cc1ccc2[nH]c(=O)c(CC(=O)O)c(-c3ccccc3)c2c1; inactive

## Task Looking for the measured Potency of CCCCC1N2CC3([N+](=O)[O-])CN1CC([N+](=O)[O-])(C2)C3(C)C (stereo not given) , can you help?
## Result inactive

## Task Which measured Potency value corresponds to COc1ccc(S(=O)(=O)N2CCN(c3ccc(F)cc3)CC2)cc1-c1noc(C)n1 ?
## Result inactive

## Task Given the compound Cc1cccc(N(C)C(=O)c2cc3c(=O)[nH]c4ccc(C)cc4c3s2)c1 , what is its reported Potency?
## Result 2.06 µM (active)

* * *

# PROTOCOL_DESCRIPTION: qHTS for Inhibitors of human tyrosyl-DNA phosphodiesterase 1 (TDP1): qHTS in cells in presence of CPT; also: nearly all actives have a fitted effect of over 55% in size
# TEST_PARAMETERS: chicken DT40 Tdp1-/-;hTDP1 cells + 20 nM CPT, ATP luminescence, 48 h; series mostly up to 46.2 µM
Screen size: about 420,000 compounds; about 50,000 (12%) were called active. Roughly 26% stayed inconclusive and do not appear here. The call rests on the fitted dose curve; in most records, active means well fitted inhibition curve with a large enough effect; inconclusive means small, poorly fitted or top-dose-only effect; inactive means flat fitted curve, though single readings scatter. The sample holds actives, similar compounds and a random draw of the others, so the mix is not that of the screen.
Hello, when you answer, please use one of the following outcomes: active, inactive

Here are 8 compounds together with their reported answers.
CCOC(=O)c1ccccc1CN1C(=O)c2ccccc2S1(=O)=O; inactive
CCC(CC)c1nn2cc(-c3ccccc3)nc2s1; inactive
CC(=O)NCCc1ccc(S(=O)(=O)Nc2ccc(C)c(S(=O)(=O)N3CCOCC3)c2)cc1; inactive
COC(=O)C1=C(c2ccccc2)c2ccccc2S(=O)(=O)N1CC(=O)Nc1ccccc1C(F)(F)F; inactive
COCCNC(=O)CSc1nc2sccc2c(=O)n1-c1ccccc1; inactive
NC(=O)C1=C[C@@H](c2csc3ccccc23)C[C@@H](OCc2ccc(CO)cc2)O1; active
CCC1(CC)C(=O)C2=C3C1[C@H](C(=O)OC)C=C(C(=O)OC)C[C@H]3[C@H]1C(=O)N(Cc3ccccc3)C(=O)[C@H]1[C@H]2C (some centres undefined); active
CC(=O)N/C(=C\c1ccccc1)C(=O)OC(C)C(=O)N(C)c1ccccc1 (centres undefined); inactive

## Task Test call for this compound, please: NC(=O)C1=C[C@H](c2csc3ccccc23)C[C@H](OCc2ccc(CO)cc2)O1
## Result active

* * *

# PROTOCOL_DESCRIPTION: qHTS for Inhibitors of human tyrosyl-DNA phosphodiesterase 1 (TDP1): qHTS in cells in presence of CPT; also: nearly all actives have a fitted effect of over 55% in size
# TEST_PARAMETERS: chicken DT40 Tdp1-/-;hTDP1 cells + 20 nM CPT, ATP luminescence, 48 h; series mostly up to 46.2 µM
Hit rate of the full screen: of about 420,000 compounds, about 50,000 (12%) were called active. Another 26% or so got no clear call; they are omitted. The call rests on the fitted dose curve; in most records, active means well fitted inhibition curve with a large enough effect; inconclusive means small, poorly fitted or top-dose-only effect; inactive means flat fitted curve, though single readings scatter. The full list was thinned out, with actives kept by preference.
Respond with a class label; see active, inactive

Please review the following examples before continuing.
COc1cccc(NC(=S)C(C#N)=C2N(C)c3ccccc3N2C)c1; inactive
CCCCN(C)c1nnc(NC(=O)Nc2ccc(Br)c(C)c2)s1; inactive
O=C(CN1CCC(NC(=O)Nc2ccccc2)CC1)Nc1cccc([N+](=O)[O-])c1; inactive
CC(=O)Nc1ccc(C(=O)N(C2=NC(C)CS2)c2ccc(Cl)cc2)cc1 (centres undefined); inactive
Cc1nnc(NC(=O)Nc2ccc(Cl)c(Cl)c2)s1; active

Now for another entry.
## Task Please let me know the test result on file for COc1cc(/C=C2\SC(=S)N(Nc3ncc(C(F)(F)F)cc3Cl)C2=O)cc(OC)c1OC .
## Result inactive

* * *

# PROTOCOL_DESCRIPTION: qHTS for Inhibitors of human tyrosyl-DNA phosphodiesterase 1 (TDP1): qHTS in cells in presence of CPT; also: nearly all actives have a fitted effect of over 55% in size; also: potency is read from the fitted curve at half-maximal effect
# TEST_PARAMETERS: chicken DT40 Tdp1-/-;hTDP1 cells + 20 nM CPT, ATP luminescence, 48 h; series mostly up to 46.2 µM
Hit rate of the full screen: of about 420,000 compounds, about 50,000 (12%) were called active. Inconclusive results (about 26%) are left out. This is one part of a sample in which actives are shown more often than they occur.
MEASUREMENT_KIND: Potency

Solved entries:
O=C(CCC(=O)N/N=C/c1ccc(Br)o1)N/N=C/c1ccc(Br)o1; inactive
CNS(=O)(=O)c1ccc(N2CCCC2=O)c([N+](=O)[O-])c1; inactive
O=C(Nc1cc(Cl)ccc1N1CCOCC1)c1ccc(N2CCCC2=O)cc1; inactive
Cc1cc(S(=O)(=O)N2CCOCC2)ccc1OCC(=O)Nc1cccc(C(F)(F)F)c1; inactive

## Task Quick one: Potency of O=C(Cc1ccc(S(=O)(=O)N2CCOCC2)s1)Nc1ccc(Br)c(C(F)(F)F)c1 ?
## Result 14.6 µM (active)
